FYI, the data here is from patent US20260248972A1.

assay: in vivo; conditions: BALB/c nude, mouse, in vivo, iv, total radioactivity, uptake Kidney
attribute-measured: tissue uptake at 24 h
Provide a numeric answer, followed by its unit.

Use these answered entries as a reference point.
- molecule: "C[C@@H](O)[C@H](NC(=O)[C@@H]1CSSC[C@H](NC(=O)[C@@H](Cc2ccccc2)NC(=O)CC[C@H](NC(=O)[C@H](CCCCNC(=O)CC[C@H](NC(=O)CNC(=O)c2cccc(NC(=O)N[C@@H]3CN(C4CCCCC4)c4ccccc4N(CC(=O)C(C)(C)C)C3=O)c2)C(=O)O)NC(=O)CC[C@H](NC(=O)CN2CCN(CC(=O)O)CCN(CC(=O)O)CCN(CC(=O)O)CC2)C(=O)O)C(=O)O)C(=O)N[C@@H](Cc2ccc(O)cc2)C(=O)N[C@H](Cc2c[nH]c3ccccc23)C(=O)N[C@@H](CCCCN)C(=O)N[C@@H]([C@@H](C)O)C(=O)N1)C(=O)O"
  reported-result: "42.2 %ID/g"
- molecule: "C[C@@H](O)[C@H](NC(=O)[C@@H]1CSSC[C@H](NC(=O)[C@@H](Cc2ccccc2)NC(=O)COCCOCCNC(=O)COCCOCCNC(=O)[C@H](CCCCNC(=O)c2cccc(NC(=O)N[C@@H]3CN(C4CCCCC4)c4ccccc4N(CC(=O)C(C)(C)C)C3=O)c2)NC(=O)CN2CCN(CC(=O)O)CCN(CC(=O)O)CCN(CC(=O)O)CC2)C(=O)N[C@@H](Cc2ccc(O)cc2)C(=O)N[C@H](Cc2c[nH]c3ccccc23)C(=O)N[C@@H](CCCCN)C(=O)N[C@@H]([C@@H](C)O)C(=O)N1)C(=O)O [Compound I-39, DOTA-K(Z360)-OEG-OEG-f[CYwKTC]T-OH]"
  reported-result: "12 %ID/g"

Q. Answer with the recorded tissue uptake at 24 h for the molecule listed here: C[C@@H](O)[C@H](NC(=O)[C@@H]1CSSC[C@H](NC(=O)[C@@H](Cc2ccccc2)NC(=O)CCOCCOCCOCCNC(=O)[C@H](CCCCNC(=O)c2cccc(NC(=O)N[C@@H]3CN(C4CCCCC4)c4ccccc4N(CC(=O)C(C)(C)C)C3=O)c2)NC(=O)CN2CCN(CC(=O)O)CCN(CC(=O)O)CCN(CC(=O)O)CC2)C(=O)N[C@@H](Cc2ccc(O)cc2)C(=O)N[C@H](Cc2c[nH]c3ccccc23)C(=O)N[C@@H](CCCCN)C(=O)N[C@@H]([C@@H](C)O)C(=O)N1)C(=O)O [Compound I-38, DOTA-K(Z360)-PEG3-f[CYwKTC]T-OH]
A. 7.9 %ID/g

Q. Dear colleague, please send me the reported tissue uptake at 24 h for C[C@@H](O)[C@H](NC(=O)[C@@H]1CSSC[C@H](NC(=O)[C@@H](Cc2ccccc2)NC(=O)CCCCCCCNC(=O)[C@H](CCCCNC(=O)c2cccc(NC(=O)N[C@@H]3CN(C4CCCCC4)c4ccccc4N(CC(=O)C(C)(C)C)C3=O)c2)NC(=O)CN2CCN(CC(=O)O)CCN(CC(=O)O)CCN(CC(=O)O)CC2)C(=O)N[C@@H](Cc2ccc(O)cc2)C(=O)N[C@H](Cc2c[nH]c3ccccc23)C(=O)N[C@@H](CCCCN)C(=O)N[C@@H]([C@@H](C)O)C(=O)N1)C(=O)O [Compound I-61, DOTA-K(Z360)-Aoc-f[CYwKTC]T-OH] when you can.
A. 1.53 %ID/g

Q. Supply measured tissue uptake at 24 h of C[C@@H](O)[C@H](NC(=O)[C@@H]1CSSC[C@H](NC(=O)[C@@H](Cc2ccccc2)NC(=O)[C@H](CCCCNC(=O)c2cccc(NC(=O)N[C@@H]3CN(C4CCCCC4)c4ccccc4N(CC(=O)C(C)(C)C)C3=O)c2)NC(=O)CCOCCOCCOCCNC(=O)CN2CCN(CC(=O)O)CCN(CC(=O)O)CCN(CC(=O)O)CC2)C(=O)N[C@@H](Cc2ccc(O)cc2)C(=O)N[C@H](Cc2c[nH]c3ccccc23)C(=O)N[C@@H](CCCCN)C(=O)N[C@@H]([C@@H](C)O)C(=O)N1)C(=O)O [Compound I-48, DOTA-PEG3-K(Z360)-f[CYwKTC]T-OH] in your reply.
A. 10.6 %ID/g

---

test: in vivo; settings: BALB/c nude, mouse, in vivo, iv, total radioactivity, uptake Liver
attribute-measured: tissue uptake at 24 h (%ID/g)
Give the value in %ID/g but do not write %ID/g after it.

Q. For the compound C[C@@H](O)[C@H](NC(=O)[C@@H]1CSSC[C@H](NC(=O)[C@@H](Cc2ccccc2)NC(=O)[C@H](CCCCNC(=O)c2cccc(NC(=O)N[C@@H]3CN(C4CCCCC4)c4ccccc4N(CC(=O)C(C)(C)C)C3=O)c2)NC(=O)CCOCCOCCOCCNC(=O)CN2CCN(CC(=O)O)CCN(CC(=O)O)CCN(CC(=O)O)CC2)C(=O)N[C@@H](Cc2ccc(O)cc2)C(=O)N[C@H](Cc2c[nH]c3ccccc23)C(=O)N[C@@H](CCCCN)C(=O)N[C@@H]([C@@H](C)O)C(=O)N1)C(=O)O [Compound I-48, DOTA-PEG3-K(Z360)-f[CYwKTC]T-OH] , report tissue uptake at 24 h.
A. 7.02

---

test: in vivo; conditions: BALB/c nude, mouse, in vivo, iv, total radioactivity, % ID/g Blood
Entries and their measured tissue uptake at 24 h follow.
Give the quantity in %ID/g, number only.

Take a look at these entries with their results.
- compound: "CC(C)(C)C(=O)CN1C(=O)[C@H](NC(=O)Nc2cccc(C(=O)N[C@@H](CCC(=O)N[C@@H](CCC(=O)N[C@@H](CCC(=O)N[C@@H](CCCCNC(=O)COCCOCCNC(=O)COCCOCCNC(=O)CCC(C(=O)O)N3CCN(CC(=O)O)CCN(CC(=O)O)CCN(CC(=O)O)CC3)C(N)=O)C(=O)O)C(=O)O)C(=O)O)c2)CN(C2CCCCC2)c2ccccc21 (stereo partly shown) [^177Lu-C-4, metal not drawn, reference compound]"
  tissue uptake at 24 h [%ID/g]: 0.01
- compound: "C[C@@H](O)[C@H](NC(=O)[C@@H]1CSSC[C@H](NC(=O)[C@@H](Cc2ccccc2)NC(=O)COCCOCCNC(=O)COCCOCCNC(=O)[C@H](CCCCNC(=O)c2cccc(NC(=O)N[C@@H]3CN(C4CCCCC4)c4ccccc4N(CC(=O)C(C)(C)C)C3=O)c2)NC(=O)CN2CCN(CC(=O)O)CCN(CC(=O)O)CCN(CC(=O)O)CC2)C(=O)N[C@@H](Cc2ccc(O)cc2)C(=O)N[C@H](Cc2c[nH]c3ccccc23)C(=O)N[C@@H](CCCCN)C(=O)N[C@@H]([C@@H](C)O)C(=O)N1)C(=O)O [Compound 177Lu-I-39, metal not drawn]"
  tissue uptake at 24 h [%ID/g]: 0.33
- compound: "C[C@@H](O)[C@H](NC(=O)[C@@H]1CSSC[C@H](NC(=O)[C@@H](Cc2ccccc2)NC(=O)CN2CCN(CC(=O)O)CCN(CC(=O)O)CCN(CC(=O)O)CC2)C(=O)N[C@@H](Cc2ccc(O)cc2)C(=O)N[C@H](Cc2c[nH]c3ccccc23)C(=O)N[C@@H](CCCCN)C(=O)N[C@@H]([C@@H](C)O)C(=O)N1)C(=O)O [^177Lu-C-1, metal not drawn, reference compound]"
  tissue uptake at 24 h [%ID/g]: 0.01

Let's switch to this compound now.
Q. State its tissue uptake at 24 h: C[C@@H](O)[C@H](NC(=O)[C@@H]1CSSC[C@H](NC(=O)[C@@H](Cc2ccccc2)NC(=O)[C@H](CCCCNC(=O)COCCOCCNC(=O)c2cccc(NC(=O)N[C@@H]3CN(C4CCCCC4)c4ccccc4N(CC(=O)C(C)(C)C)C3=O)c2)NC(=O)CN2CCN(CC(=O)O)CCN(CC(=O)O)CCN(CC(=O)O)CC2)C(=O)N[C@@H](Cc2ccc(O)cc2)C(=O)N[C@H](Cc2c[nH]c3ccccc23)C(=O)N[C@@H](CCCCN)C(=O)N[C@@H]([C@@H](C)O)C(=O)N1)C(=O)O [^177Lu-I-36, metal not drawn]
A. 0.7

---

assay: in vivo; details: BALB/c nude, mouse, in vivo, iv, total radioactivity, uptake Kidney
attribute-measured: tissue uptake at 24 h
Put down the number, then write its unit next to it.

Q. Kindly indicate its recorded tissue uptake at 24 h. Item: C[C@@H](O)[C@H](NC(=O)[C@@H]1CSSC[C@H](NC(=O)[C@@H](Cc2ccccc2)NC(=O)COCCOCCNC(=O)[C@H](CCCCNC(=O)[C@H](CCC(=O)O)NC(=O)c2cccc(NC(=O)N[C@@H]3CN(C4CCCCC4)c4ccccc4N(CC(=O)C(C)(C)C)C3=O)c2)NC(=O)CN2CCN(CC(=O)O)CCN(CC(=O)O)CCN(CC(=O)O)CC2)C(=O)N[C@@H](Cc2ccc(O)cc2)C(=O)N[C@H](Cc2c[nH]c3ccccc23)C(=O)N[C@@H](CCCCN)C(=O)N[C@@H]([C@@H](C)O)C(=O)N1)C(=O)O [Compound I-27, DOTA-K(-E-Z360)-OEG-f[CYwKTC]T-OH]
A. 21 %ID/g
